Biological target: hDAT (human dopamine transporter) (Homo sapiens, UniProt Q01959)
Sequence (Q01959 whole entry): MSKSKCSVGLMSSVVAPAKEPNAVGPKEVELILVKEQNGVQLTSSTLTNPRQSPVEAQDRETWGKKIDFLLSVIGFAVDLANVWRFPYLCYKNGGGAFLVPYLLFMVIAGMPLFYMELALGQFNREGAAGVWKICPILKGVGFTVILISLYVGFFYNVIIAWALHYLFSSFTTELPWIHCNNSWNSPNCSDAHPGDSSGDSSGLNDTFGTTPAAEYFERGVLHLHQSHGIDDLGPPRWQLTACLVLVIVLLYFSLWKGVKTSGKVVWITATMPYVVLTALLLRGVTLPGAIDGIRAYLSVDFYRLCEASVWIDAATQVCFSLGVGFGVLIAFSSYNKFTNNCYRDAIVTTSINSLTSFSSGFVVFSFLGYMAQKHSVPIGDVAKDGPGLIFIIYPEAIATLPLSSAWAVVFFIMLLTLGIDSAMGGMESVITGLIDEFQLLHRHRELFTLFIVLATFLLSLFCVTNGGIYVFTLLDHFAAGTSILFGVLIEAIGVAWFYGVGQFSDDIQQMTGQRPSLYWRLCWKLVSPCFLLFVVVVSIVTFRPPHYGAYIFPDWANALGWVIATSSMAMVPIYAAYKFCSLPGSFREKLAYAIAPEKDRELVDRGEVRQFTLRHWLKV
Assay: Filtration assay for inhibition of [3H]dopamine uptake in HEK-hDAT cells
ASSAY ENDPOINT: IC50 (nM)
Numbers only, in nM.

INPUT: Give hDAT (human dopamine transporter) (Homo sapiens, UniProt Q01959) IC50 for NC(=O)OC[C@H](N)Cc1ccccc1
OUTPUT: 2900

====

Biological target: hNET (human norepinephrine transporter) (Homo sapiens, UniProt P23975)
Sequence (P23975 whole entry): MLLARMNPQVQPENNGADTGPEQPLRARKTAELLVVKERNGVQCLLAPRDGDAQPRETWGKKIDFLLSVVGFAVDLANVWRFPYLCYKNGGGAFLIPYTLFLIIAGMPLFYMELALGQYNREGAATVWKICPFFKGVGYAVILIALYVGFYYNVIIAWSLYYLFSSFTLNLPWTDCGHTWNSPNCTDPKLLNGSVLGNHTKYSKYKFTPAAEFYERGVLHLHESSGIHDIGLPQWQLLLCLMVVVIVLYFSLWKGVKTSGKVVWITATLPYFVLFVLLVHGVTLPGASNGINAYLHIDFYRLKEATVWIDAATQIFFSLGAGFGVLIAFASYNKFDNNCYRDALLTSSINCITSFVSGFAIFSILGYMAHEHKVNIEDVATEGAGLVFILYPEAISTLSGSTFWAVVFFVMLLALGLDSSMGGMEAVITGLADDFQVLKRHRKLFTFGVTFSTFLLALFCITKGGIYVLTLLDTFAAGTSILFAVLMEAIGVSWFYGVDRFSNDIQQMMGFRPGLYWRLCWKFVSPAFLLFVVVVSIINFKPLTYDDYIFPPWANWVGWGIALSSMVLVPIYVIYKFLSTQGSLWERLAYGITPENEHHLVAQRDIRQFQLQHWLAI
Test: cell-based
Settings: HEK-hNET cells; mean ± SEM; read-out: [3H]NE Uptake IC50
ASSAY ENDPOINT: pIC50
Give bare numbers, as −log10 of the molar value.

INPUT: What does the data say about its pIC50? Entry: NC(=O)OC[C@H](N)Cc1ccccc1
OUTPUT: 5.36
